B1: CPEB3 Ribozyme (parent)
chain: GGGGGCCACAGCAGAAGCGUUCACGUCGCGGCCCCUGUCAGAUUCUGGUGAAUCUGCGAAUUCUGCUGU

# Variants of: B1
# Assay Notes: self-cleavage, relative activity (ratio to wild type); higher = more cleavage; co-transcriptional
# binarize self-cleavage: threshold 0.3 inclusive, high side Satisfied, low side Not satisfied

| Query Sequence | Label Class |
| --- | --- |
| GGGGGGCACGGCAGAAGCGUUCACGUCGCGGCCCCUGUCAGAUUCUGGUGAAUCUGCGAAUUCUGCUGU [C6G A10G] | Satisfied |
| GGCGGCCACAGCAGAAGCGUUCACGUCGCGGCCCCUGUCAGAUUCUGGUGAAUCUGCGAAUUCUGCUAU [G3C G68A] | Satisfied |
| GGGGGCCACAACAGAGGCGUUCACGUCGCGGCCCCUGUCAGAUUCUGGUGAAUCUGCGAAUUCUGCUGU [G11A A16G] | Satisfied |

Now consider the entry below.
Kindly determine if self-cleavage recorded for GGGGGCCACAGCAGAAGCGUUCACGUCGCAGCCCCUGUCAGAUUCUGGUGAAUCUGCGAAUUAUGCUGU [G30A C63A] is above or exactly 0.3.
Satisfied
